Where do these numbers come from? They come from patent US9381186B2.

assay: Oral pharmacokinetics in female BALB/c mice; format: in vivo, mouse; conditions: female, BALB/c, mouse, serum, po, 50 mg/kg, oral 50 mg/kg, Time 24 (head prints days); read-out: Serum Free

molecule: COc1ccc(C2c3ccc(O)c(C)c3OCC2c2ccc(O)cc2)cc1 (stereo not shown)
concentration at 24 h, nM: 50

* * *

experiment: Oral pharmacokinetics in female BALB/c mice; format: in vivo, mouse; details: female, BALB/c, mouse, serum, po, 50 mg/kg, oral 50 mg/kg, Time 0.5 (head prints days); read-out: Serum Free

molecule: COc1ccc(C2c3ccc(O)c(C)c3OCC2c2ccc(O)cc2)cc1 (stereo not shown)
unit-annotation: µM
concentration at 0.5 h: 8.2

* * *

assay: Oral pharmacokinetics in female BALB/c mice; format: in vivo, mouse; conditions: female, BALB/c, mouse, faeces, po, 50 mg/kg, oral 50 mg/kg, Time 4 (head prints days); read-out: Faeces Free

compound: COc1ccc(C2c3ccc(O)c(C)c3OCC2c2ccc(O)cc2)cc1 (stereo not shown)
concentration at 4 h [µM]: 1790

* * *

tested on: CP70; experiment: MTT proliferation assay, ovarian CP70; assay type: cell-based; details: Ovarian CP70, Table 2.2; read-out: IC50
Overview of reported log10 IC50 across a group of molecules:
measure: log10 IC50 (log10 of the value in µM)

molecule: Oc1ccc(C2=C(c3ccccc3)c3ccc(O)cc3OC2)cc1
tested-target: CP70
measure: log10 IC50
observed: 1.26

molecule: COc1ccc(C2(O)c3ccc(O)cc3OCC2c2ccc(O)cc2)cc1 (centres unmarked)
tested-target: CP70
measure: log10 IC50
observed: 1.72

molecule: COc1ccc(C2c3ccc(O)c(C)c3OCC2c2ccc(O)cc2)cc1 (centres unmarked)
tested-target: CP70
measure: log10 IC50
observed: 0.28

molecule: COc1ccc(C2=C(c3ccc(O)cc3)COc3cc(O)ccc32)cc1
tested-target: CP70
measure: log10 IC50
observed: 1.35

molecule: COc1cccc(C2(O)c3ccc(O)cc3OCC2c2ccc(O)cc2)c1 (centres unmarked)
tested-target: CP70
measure: log10 IC50
observed: 1.81

molecule: Cc1ccc(C2(O)c3ccc(O)cc3OCC2c2ccc(O)cc2)cc1 (centres unmarked)
tested-target: CP70
measure: log10 IC50
observed: 1.44

molecule: COc1ccc(C2=C(c3ccc(OC)cc3)c3ccc(OC)cc3OC2)cc1
tested-target: CP70
measure: log10 IC50
observed: 1.79

molecule: Oc1ccc(C2COc3cc(O)ccc3C2(O)c2ccccc2)cc1 (centres unmarked)
tested-target: CP70
measure: log10 IC50
observed: 1.79

molecule: COc1cccc(C2=C(c3ccc(O)cc3)COc3cc(O)ccc32)c1
tested-target: CP70
measure: log10 IC50
observed: 1.73

molecule: COc1ccc(C2=C(c3ccc(O)cc3)COc3c2ccc(O)c3C)cc1
tested-target: CP70
measure: log10 IC50
observed: 1.25

* * *

system: NFF (neonatal foreskin fibroblasts); assay: Cytotoxicity (MTT proliferation assay) against neonatal foreskin fibroblasts; assay type: cell-based, Human; settings: non-transformed neonatal foreskin fibroblasts; read-out: IC50
pIC50: −log10 of the molar value.

compound: N.N.[Cl][Pt][Cl] [Cisplatin, reference compound]
pIC50: 5.05

* * *

assay: Oral pharmacokinetics in female BALB/c mice; assay type: in vivo, mouse; settings: female, BALB/c, mouse, serum, po, 50 mg/kg, oral 50 mg/kg, Time 4 (head prints days); read-out: Serum Free
measure: concentration at 4 h

compound: COc1ccc(C2c3ccc(O)c(C)c3OCC2c2ccc(O)cc2)cc1 (stereo not shown) [Compound 1]
observed: 300 nM
